test system: HCC 2998; assay: NCI tumour cell line growth inhibition, 48 h
Active and inactive are the calls of the source. No stated cut-off is given here; in the data, active = GI50 up to about 1.1 µM and inactive = higher.
Permitted responses: active, inactive

Field: example entries. Status: answers known.
Query: Answer briefly: the call reported for O=C1NC(=O)/C(=C/c2ccc(S(=O)(=O)N/N=C\C(O)C(O)C(O)C(O)CO)cc2)N1 (stereo unspecified) in this assay.
Result: inactive

Query: Answer briefly: the call reported for CCCC(=O)O[C@H]1C=C2C[C@@]34SS[C@]5(CC6=C[C@H](OC(C)=O)[C@@H]7O[C@@H]7[C@H]6N5C3=O)C(=O)N4[C@@H]2[C@H]2O[C@H]21 in this assay.
Result: active

Query: Answer briefly: the call reported for O=C1C=C(Br)c2c(-c3ccccc3)oc3cccc1c23 in this assay.
Result: inactive

Query: Answer briefly: the call reported for CC1=C2C(=C[C@@](C)(CO)[C@@H]2O)C(=O)[C@](C)(O)C12CC2 [ILLUDIN] in this assay.
Result: active

Query: Answer briefly: the call reported for N#Cc1nn(-c2ccc(Cl)cc2)c(=N)c2c(N)n3nc(-c4ccccc4)cc3nc12 in this assay.
Result: active

Next, consider the following compound.
Query: Answer briefly: the call reported for Cc1cccc(N/C(Sc2ccccc2)=C(/C(Cl)=C(Cl)Cl)[N+](=O)[O-])c1 in this assay.
Result: inactive

----------
tested on: SW-620; experiment: NCI tumour cell line growth inhibition, 48 h
Calls of active or inactive are those of the source. No stated cut-off is given here; in the data, active = GI50 up to about 1.1 µM and inactive = higher.
Permitted responses: active, inactive

Field: example entries. Status: answers known.
Query: Answer briefly: the call reported for Clc1ccc(C2=CCN3CC=C(c4ccc(Cl)cc4)C23)cc1 in this assay.
Result: inactive

Query: Answer briefly: the call reported for CCOC(=O)/C=C(/C(=O)OCC)n1ccc(=O)n(CC(=O)OCC)c1=O in this assay.
Result: active

Query: Answer briefly: the call reported for O=C(O/N=C1/CCC/C1=C\c1ccccc1)c1ccccc1 in this assay.
Result: inactive

Query: Answer briefly: the call reported for Cc1c(C)c2ccc3oc4ccccc4c3c2oc1=O in this assay.
Result: inactive

Continuing:
Query: Answer briefly: the call reported for O=C1O/C(=C(/Cl)c2cccc3ccccc23)c2ccccc21 in this assay.
Result: inactive

----------
tested on: SW-620; assay: NCI tumour cell line growth inhibition, 48 h
Active and inactive are the calls of the source. Cut-off read from the data, not from the text of the source: active = GI50 up to about 1.1 µM and inactive = higher.
Permitted responses: YES for active, NO for inactive

Field: example entries. Status: answers known.
Query: Answer briefly: the call reported for O=C1/C(=C/c2ccccc2)CN(C(=O)C(Cl)(Cl)Cl)C/C1=C\c1ccccc1 in this assay.
Result: YES

Query: Answer briefly: the call reported for O=C(NCCOC(=O)CCCCCCCCC(=O)OCCNC(=O)NC(=O)c1cn(Cc2ccccc2)c(=O)[nH]c1=O)NC(=O)c1cn(Cc2ccccc2)c(=O)[nH]c1=O in this assay.
Result: NO

Query: Answer briefly: the call reported for CN(C)C(=S)SCC(N)=O in this assay.
Result: NO

Query: Answer briefly: the call reported for C=C(Cl)C(=C)CCC(Cl)C(C)C (configuration not stated) in this assay.
Result: NO

Query: Answer briefly: the call reported for Cc1[nH]c2c(c1Cc1ccccc1)C1=NC=C(O)NN1C=N2 in this assay.
Result: NO

Continuing:
Query: Answer briefly: the call reported for O=P1(C(O)/C=C/c2ccccc2)N(Cc2ccccc2)[C@@H]2CCCC[C@H]2N1Cc1ccccc1 (some centres not stated) in this assay.
Result: NO

Query: Answer briefly: the call reported for CSC1=Nc2ccccc2N(C)c2c1c(-c1ccccc1)nn2C in this assay.
Result: NO

----------
Measured GI50, listed per entry for reference.
system: NCI-H226; experiment: NCI tumour cell line growth inhibition, 48 h
Active and inactive are the calls of the source. No stated cut-off is given here; in the data, active = GI50 up to about 1.1 µM and inactive = higher.

Answered cases to consult:
Query: What measured GI50 goes with N#Cc1ccc(-c2nc3c(N)nc(-c4ccccc4)nc3o2)cc1 ?
Result: > 100 µM (inactive)

Query: What measured GI50 goes with CCC(=O)C1(N2CCOCC2)CCN(CCCC(=O)c2ccc(F)cc2)CC1 ?
Result: > 100 µM (inactive)

Query: What measured GI50 goes with CCOc1ccc(NC(=O)C(=O)C2C(=O)Nc3ccccc3[S+]2[O-])cc1 (stereo unspecified) ?
Result: > 100 µM (inactive)

Continuing:
Query: What measured GI50 goes with C=C(Br)N(CC)CC ?
Result: > 100 µM (inactive)

Query: What measured GI50 goes with N#CCC(=O)N/N=C1\C(=O)N(c2ccc(Cl)cc2)C(=O)C(=O)C1c1nc2ccccc2o1 (stereo unspecified) ?
Result: > 100 µM (inactive)

Query: What measured GI50 goes with C/N=C(\Nc1cccc(C(F)(F)F)c1)SCc1ccc(N=C=S)cc1 ?
Result: 19.8 µM (inactive)

----------
system: SF-539; experiment: NCI tumour cell line growth inhibition, 48 h
Activity calls are given as the source filed them. No stated cut-off is given here; in the data, active = GI50 up to about 1.1 µM and inactive = higher.
Permitted responses: active, inactive

Query: Answer briefly: the call reported for CC(=O)OCCCCn1cnc2c(Cl)nc(Nc3ccccc3)nc21 in this assay.
Result: inactive

Query: Answer briefly: the call reported for COC(=O)C1CCC(=O)N1C(c1ccc2c(c1)OCO2)c1cc(OC)c(OC)c(OC)c1 (centres undefined) in this assay.
Result: inactive

Query: Answer briefly: the call reported for O=C1C=C(Br)c2c(-c3ccccc3)oc3cccc1c23 in this assay.
Result: inactive

Next, consider the following compound.
Query: Answer briefly: the call reported for S=C1/C(=N/c2ccccc2)N(c2ccccc2)/C(=N\c2ccccn2)N1c1ccccc1 in this assay.
Result: active

----------
test system: EKVX; assay: NCI tumour cell line growth inhibition, 48 h
Activity calls are given as the source filed them. Rule as the data show it: active = GI50 up to about 1.1 µM and inactive = higher.
Permitted responses: true (active), false (inactive)

Field: example entries. Status: answers known.
Query: Answer briefly: the call reported for CCCCCCCCCCCCCCCCCc1nc(C#N)c(N)o1 in this assay.
Result: false

Query: Answer briefly: the call reported for Cc1cccc(/C=N/NC(=S)N(C)CCc2ccccn2)n1 in this assay.
Result: true

Query: Answer briefly: the call reported for COC1=CC(=O)NCCN1 in this assay.
Result: false

Query: Answer briefly: the call reported for Cc1ncc([N+](=O)[O-])n1CC[N+](C)([O-])CCCCn1ccnc1[N+](=O)[O-] (stereo not given) in this assay.
Result: false

Next, consider the following compound.
Query: Answer briefly: the call reported for C[C@@]12CCC(=O)C=C1CC[C@H]1C2=CC[C@]2(C)C1CC[C@@]2(C)O (stereo not given in full) in this assay.
Result: false

----------
test system: MCF7; experiment: NCI tumour cell line growth inhibition, 48 h
The source made the active and inactive calls. No stated cut-off is given here; in the data, active = GI50 up to about 1.1 µM and inactive = higher.
Permitted responses: active, inactive

Field: example entries. Status: answers known.
Query: Answer briefly: the call reported for CCOC(=O)/C=C(/C(=O)OCC)n1ccc(=O)n(CC(=O)OCC)c1=O in this assay.
Result: active

Query: Answer briefly: the call reported for N#Cc1c(Nc2ccc(F)cc2)[n+]([O-])c2ccc(Cl)cc2[n+]1[O-] in this assay.
Result: inactive

Query: Answer briefly: the call reported for CCN(CC)CCO/N=C1\CC[C@H]2[C@@H]3CC=C4C[C@@H](O)CC[C@]4(C)[C@H]3CC[C@]12C in this assay.
Result: inactive

Query: Answer briefly: the call reported for Nc1nc(N)nc(CCCc2nc(N)nc(N)n2)n1 in this assay.
Result: inactive

Continuing:
Query: Answer briefly: the call reported for O=C1OC(c2ccc(O)cc2)(c2ccc(O)cc2)c2ccc(Cl)c3cccc1c23.O=C1OC(c2ccc(O)cc2)(c2ccc(O)cc2)c2cccc3c(Cl)ccc1c23 in this assay.
Result: inactive

----------
test system: HCT-116; assay: NCI tumour cell line growth inhibition, 48 h
Activity calls are given as the source filed them. Cut-off read from the data, not from the text of the source: active = GI50 up to about 1.1 µM and inactive = higher.
ATTRIBUTE_MEASURED: GI50

Answered cases to consult:
Query: Can you look up GI50 on HCT-116 for C#CCN(Cc1ccc2nc(-c3ccccc3)c(Cl)nc2c1)c1ccc(Cl)c(Cl)c1 ?
Result: > 100 µM (inactive)

Query: Can you look up GI50 on HCT-116 for CC1(C)OCC[C@@H]1[Si](C)(C)C ?
Result: 92.7 µM (inactive)

Query: Can you look up GI50 on HCT-116 for O=C1OC[C@@H]2Cc3c([nH]c4ccccc34)[C@@H](c3ccc(O)cc3)N12 ?
Result: 18.7 µM (inactive)

Continuing:
Query: Can you look up GI50 on HCT-116 for O=S(=O)(N/N=C/c1c(Cl)cccc1Cl)c1ccccc1 ?
Result: > 100 µM (inactive)

Query: Can you look up GI50 on HCT-116 for CC1(C)C2CCC3(OCCO3)C1C1OC12 (stereo not given) ?
Result: > 100 µM (inactive)

Query: Can you look up GI50 on HCT-116 for Clc1ccc(C2=CCN3CC=C(c4ccc(Cl)cc4)C23)cc1 ?
Result: 5.98 µM (inactive)

Query: Can you look up GI50 on HCT-116 for CNn1c(C)n[nH]c1=O ?
Result: > 100 µM (inactive)

Cited source: ChEMBL document CHEMBL1201862
